# method: gradient 5% acetonitrile 3 min, to 50% in 2 min, to 85% in 15 min, held 3 min, 100 µL/min
# protocol_conditions: column: Zorbax Extend-C18 2.1 x 50 mm; eluents: water / acetonitrile, 0.1% formic acid
The class of a record is decided solely by its measured RP-LC retention time; consult lower range: < 700 s; middle range: ≥ 700 s and < 900 s; upper range: ≥ 900 s

Answered cases to consult:
compound: CCc1nc(-c2csc(S(=O)(=O)N3CCC(C(=O)NCC4CCCO4)CC3)c2)no1 (stereo not given)
category: middle range

compound: CCN(CC)CCNCc1ccc(-c2ccc(Cl)cc2)o1
category: lower range

compound: O=C(OCc1nc2ccccc2s1)c1ccc([N+](=O)[O-])o1
category: middle range

compound: CCOc1ccc(-c2nc(-c3ccc(NS(=O)(=O)c4cccs4)cc3)no2)cc1
category: upper range

compound: O=C(CCc1cccc2[nH]ccc12)Nc1ccc(N2CCOCC2)cc1
category: middle range

-- ask Which category fits this record: `Cc1ccc(-c2csc(NC(=O)Cc3ccc(Cl)cc3)n2)cc1`
-- reply upper range

-- ask Which category fits this record: O=C(Nc1ccc2c(c1)OCCO2)C1CCN(C(=O)C2Sc3ccccc3NC2=O)CC1 (stereo not given)
-- reply middle range

-- ask Which category fits this record: `COc1ccc(C(=O)N2C[C@H](c3nc(-c4ccncc4)no3)[C@@H](C)C2)c(OC)c1`
-- reply middle range

-- ask Which category fits this record: `CCC(=O)N(C1CCOCC1)C1CCN(S(=O)(=O)c2ccc(Cl)c(C)c2)CC1`
-- reply upper range

-- ask Which category fits this record: `Cc1noc([C@@H]2CN(S(=O)(=O)c3ccc(Cl)s3)C[C@H]2C(N)=O)n1`
-- reply middle range

-- ask Which category fits this record: O=C(NC1CCN(c2ccccc2)C1=O)c1ccc(Br)cc1 (stereo not given)
-- reply middle range

-- ask Which category fits this record: Cc1nn(-c2ccccc2)c2nc(N3CCCC(C(=O)NCCN4CCOCC4)C3)sc12 (stereo not given)
-- reply lower range

-- ask Which category fits this record: `CC(C)Cn1cc(CCNC(=O)Nc2ccc(Br)cc2)c2cccnc21`
-- reply upper range

-- ask Which category fits this record: Cc1ccc(NC(=O)NC(C)C(=O)N2CCc3ccccc32)c(Cl)c1 (stereo not given)
-- reply upper range

-- ask Which category fits this record: `O=C(NCc1ccc2c(c1)OCO2)c1ccc2ncnc(N3CCOCC3)c2c1`
-- reply lower range

-- ask Which category fits this record: `O=C(COc1ccc2c(c1)OCO2)N1CCN(c2cc(N3CCCCC3)ncn2)CC1`
-- reply lower range

-- ask Which category fits this record: CC(=O)Nc1ccc2c(c1)CN(C(=O)c1ccc(F)cc1F)C(C(=O)N(C)C)C2 (stereo not given)
-- reply lower range

-- ask Which category fits this record: `Cc1ccc(Cl)cc1N(C)S(=O)(=O)c1cc2n(c1)CCCN(C)C2=O`
-- reply middle range

-- ask Which category fits this record: `COc1cccc(CNC(=O)c2cc3cn(C4CC4)cc3s2)c1OC`
-- reply lower range

* * *

# RP-LC retention time listing for each entry below
# method: gradient 5% acetonitrile 3 min, to 50% in 2 min, to 85% in 15 min, held 3 min, 100 µL/min
# protocol_conditions: column: Zorbax Extend-C18 2.1 x 50 mm; eluents: water / acetonitrile, 0.1% formic acid
Numbers only here, please. The scale is s.

Below, each entry is followed by its recorded RP-LC retention time result.
molecule: CCc1cc(=O)n(CC(=O)Nc2ccc(C)cc2C)c(N)n1
RP-LC retention time / s: 631
//
molecule: Cn1c(=O)c2cc(C(=O)Nc3ccccc3)cnc2n(-c2ccc(F)cc2)c1=O
RP-LC retention time / s: 885
//
molecule: COc1ccc2c(c1)C1(CCN(C(=O)Nc3cccc(F)c3)C1)C(=O)N2 (stereo not given)
RP-LC retention time / s: 683
//
molecule: CC(C)c1nnc(-c2cccnc2N2CCN(C(=O)c3ccc4c(c3)OCO4)CC2)o1
RP-LC retention time / s: 759
//
molecule: N#Cc1nnn2c1nc(N)c1c(Cl)cccc12
RP-LC retention time / s: 817

-- ask // query RP-LC retention time value for entry COc1ccccc1-c1noc(C2CCCN2C(=O)c2n[nH]c3ccccc23)n1 (stereo not given)
-- reply 829

-- ask // query RP-LC retention time value for entry `Cc1nn(-c2ccc(N3CCOCC3)nn2)c(C)c1CCC(=O)NCc1ccco1`
-- reply 633

-- ask // query RP-LC retention time value for entry `O=C(Nc1ccc(F)cc1F)N1CCC(OC2CCN(Cc3ccccc3)CC2)CC1`
-- reply 656

-- ask // query RP-LC retention time value for entry `O=S(=O)(c1ccc2c(c1)OCCO2)N1CCC(CN2CCCCCC2)CC1`
-- reply 645

-- ask // query RP-LC retention time value for entry `CC(=O)Nc1ccc(C(=O)N2CCC3(CC2)N=C(c2ccccc2)NO3)cc1`
-- reply 664

-- ask // query RP-LC retention time value for entry `C=CCN(Cc1nc(-c2ccc(C)cc2)no1)C(=O)Nc1ccccc1OC`
-- reply 1130

-- ask // query RP-LC retention time value for entry `O=C(Cc1ccc(F)cc1)Nc1nnc(-c2ccc(Br)cc2)s1`
-- reply 952

-- ask // query RP-LC retention time value for entry COc1ccc(OC)c(CNC(=O)C2CCCN(c3ccc(=O)n(-c4cccc(F)c4)n3)C2)c1 (stereo not given)
-- reply 827

-- ask // query RP-LC retention time value for entry `COCCNC(=O)C1CCN(c2nc3ccc(-c4cccc(OC)c4)nc3s2)CC1`
-- reply 804

-- ask // query RP-LC retention time value for entry `Cc1nc(Nc2ccc(Br)cn2)sc1C(=O)NCCN1CCCC1`
-- reply 628

-- ask // query RP-LC retention time value for entry COc1ccc(-c2noc(C3CC(=O)N(c4ccc(C)c(Cl)c4)C3)n2)c(OC)c1 (stereo not given)
-- reply 982

-- ask // query RP-LC retention time value for entry COC(=O)C1C(=O)C2=C(CC1C)NC(=O)CC2c1cccc(Cl)c1 (stereo not given)
-- reply 773

-- ask // query RP-LC retention time value for entry `Cc1oc(-c2ccc(NC(=O)c3ccc(Br)cc3)cc2)nc1Cn1cccn1`
-- reply 948

-- ask // query RP-LC retention time value for entry Cc1sc(C)c(S(=O)(=O)NCC2CCCO2)c1-c1cc(C(F)(F)F)on1 (stereo not given)
-- reply 1020

-- ask // query RP-LC retention time value for entry `CCNc1nc(-c2ccc(C3CCCCC3)cc2)cs1`
-- reply 1060
